Test system: Trichoderma virens ATCC 9645
ASSAY_NAME: growth yield (OD600) relative to untreated control; higher = less growth inhibition
REPORTED_CONDITIONS: compound concentration: 100 uM; 72 h
Where a name gives a salt, the structure may show the parent alone. The campaign covered roughly 1,300 compounds. About 75 (6%) showed an effect of 50% or more. The sample holds strong results, similar compounds and a random draw of the others, so the mix is not that of the screen.
// growth yield lookup, one value per entry
EXPERIMENTAL_READOUT: growth yield (%)

| COMPOUND | TESTED_ON | RESULT_NUMBER |
| --- | --- | --- |
| N=C(N)NCCN1CCCCCCC1 [Guanethidine sulfate] | Trichoderma virens ATCC 9645 | 101 |
| N#Cc1ccc(C(c2ccc(C#N)cc2)n2cncn2)cc1 [Letrozole] | Trichoderma virens ATCC 9645 | 102 |
| CC(C)N1CCN(c2ccc(OCC3COC(Cn4cncn4)(c4ccc(Cl)cc4Cl)O3)cc2)CC1 (centres undefined) [Terconazole] | Trichoderma virens ATCC 9645 | 88.4 |
| Cc1c(NC(C)C)c(=O)n(-c2ccccc2)n1C [Isopyrin hydrochloride] | Trichoderma virens ATCC 9645 | 96.2 |
| O=C1OCCN1/N=C/c1ccc([N+](=O)[O-])o1 [Furazolidone] | Trichoderma virens ATCC 9645 | 87.7 |
| O=C(O[C@@H]1C[C@@H]2C[C@H]3C[C@H](C1)N2CC3=O)c1c[nH]c2ccccc12 [Dolasetron mesilate] | Trichoderma virens ATCC 9645 | 104 |
| Oc1c(Cl)cc(Cl)c2cccnc12 [Chloroxine] | Trichoderma virens ATCC 9645 | 1.36 |
| O=C(Cn1ccnc1[N+](=O)[O-])NCCO [Etanidazole] | Trichoderma virens ATCC 9645 | 98 |
| CN(C)CCN1C(=O)c2ccccc2N(C)c2ccccc21 [Dibenzepine hydrochloride] | Trichoderma virens ATCC 9645 | 105 |

====

Tested on: Trichoderma virens ATCC 9645
ASSAY_NAME: growth yield (OD600) relative to untreated control; higher = less growth inhibition
REPORTED_CONDITIONS: compound concentration: 100 uM; 72 h
Where a name gives a salt, the structure may show the parent alone. Among all 1,300 compounds or so, about 75 (6%) showed an effect of 50% or more. This excerpt belongs to a sample that is enriched for strong results.

| COMPOUND | UNIT_ABBREV | growth yield |
| --- | --- | --- |
| CN(Cc1cc(Br)cc(Br)c1N)C1CCCCC1 [Bromhexine hydrochloride] | % | 98.2 |
| Nc1nc2n[nH]nc2c(=O)[nH]1 [Azaguanine-8] | % | 2.62 |
| CO[C@@]1(NC(=O)Cc2cccs2)C(=O)N2C(C(=O)O)=C(COC(N)=O)CS[C@@H]21 [Cefoxitin sodium salt] | % | 94.8 |
| CC(=O)OC[C@H]1O[C@@H]([S-])[C@H](OC(C)=O)[C@@H](OC(C)=O)[C@@H]1OC(C)=O.CCP(CC)CC.[Au+] [Auranofin] | % | 33 |
| CCCC(=O)Nc1ncnc2c1ncn2[C@@H]1O[C@@H]2COP(=O)(O)O[C@H]2[C@H]1OC(=O)CCC [Bucladesine sodium salt] | % | 97.7 |
| CC[N+](CC)(CC)CCC(O)(c1ccccc1)C1CCCCC1 (stereo not drawn) [Tridihexethyl chloride] | % | 101 |
| NCc1ccc(S(N)(=O)=O)cc1 [Mafenide hydrochloride] | % | 111 |
| Nc1nc2c(ncn2COC(CO)CO)c(=O)[nH]1 [Ganciclovir] | % | 103 |
